Values from ChEMBL document CHEMBL1157539

tested on: HepG2; test: GSK_TCMDC: Percent inhibition of human HepG2 cell line. Test compounds present at 10uM.; type: functional
# binning rule on Inhibition: low group = under 7%, middle group = from 7% up to 20%, high group = 20% and over

Returns: class label. Input: O=C(/C=C/c1ccc(Cl)c(Cl)c1)N1CCC(CN2CCC(c3c[nH]c4ccc(O)cc34)CC2)CC1
high group

In plain terms, what class is CC(C)CNCc1cccc(-c2cccc(CN(C(=O)c3cccs3)C3CCN(Cc4ccccc4)CC3)c2)c1.O=C(O)C(F)(F)F ?
middle group

Class label required: COC(=O)/C=C/c1ccc(CC(C)NCC(O)c2cccc(C(F)(F)F)c2)cc1 (centres undefined)
middle group

State the band of CCN1CCC2(c3cccc(OC)c3)Cc3nc4ccccc4c(-c4ccccc4)c3CC2C1 (centres undefined)
low group

Field: class (Inhibition) — entry: Oc1cc2c(cc1CN1CCN(Cc3ccccc3)CC1)CCC2
low group

Category of O=C(/C=C/C=C/c1ccccc1)NC1CCC(CN2CCC(c3c[nH]c4ccccc34)CC2)CC1 (centres undefined) , please.
high group

Lab note: sort CNCCCCCCOc1ccc(CC(C)NCC(O)c2cccc(C(F)(F)F)c2)cc1.Cl (centres undefined) into the matching Inhibition band.
high group

Hello team, could you let me know which band the following compound falls into: Oc1ccc(CN2CCN(CCOC(c3ccccc3)c3ccc(Cl)cc3)CC2)cc1Cl (centres undefined)
middle group

Tag the class for O=C(/C=C/c1c(Cl)cccc1Cl)NC1CCC(CN2C3CCC2CC(c2c[nH]c4ccccc24)C3)CC1 (centres undefined)
high group

Which category does the recorded Inhibition put COc1cccc(C2(C)CCN(CCCCNC(=O)c3ccc(NC(=O)c4ccc(Cl)cc4)cc3)CC2)c1.Cl in?
middle group

Which category does the recorded Inhibition put O=C(/C=C/c1ccc(Cl)c(Cl)c1)Nc1cccc(CN2CCC(c3c[nH]c4ccccc34)CC2)c1 in?
middle group

Which band does NCc1ccc(-c2ccccc2CN(C(=O)Nc2ccccc2)C2CCN(Cc3ccccc3)CC2)cc1.O=C(O)C(F)(F)F fall in?
high group

Input O=C(c1ccccc1)C1CC1CN1CC=C(c2c[nH]c3ccccc23)CC1 (centres undefined) ; output its category
low group

Category lookup for the compound CC[C@H]1CN2CC[C@@H]1C[C@H]2[C@H](O)c1cc(N2CCC(N3CCCCC3)CC2)nc2ccc(OC)cc12
low group

Kindly state the category for this compound: CC(=O)Nc1ccc2[nH]cc(C3CCN(CC4CCN(C(=O)/C=C/c5ccc(Cl)c(Cl)c5)CC4)CC3)c2c1
middle group

Field: class (Inhibition) — entry: COC(=O)c1ccc(CC(C)NCC(O)c2cccc(C(F)(F)F)c2)cc1F.Cl (centres undefined)
low group

Entry CN(c1ccc(NC(=O)CCOc2ccccc2)cc1)C1CCN(Cc2cccc(O)c2)CC1.O=C(O)C(F)(F)F belongs to which category?
middle group

Which Inhibition category applies to COC(C(=O)OCCC1CCCN1C)(c1ccccc1)c1ccccc1 (centres undefined) here?
low group
